Taken from patent EP4227307A1.

Target: human recombinant 6His-Nterm SHP2 full-length (Thr2-Arg593) (Homo sapiens, UniProt Q06124)
Construct: 6His-Nterm SHP2 full-length (Thr2-Arg593, R&D system); 6His (N)
Sequence (Q06124 2-593): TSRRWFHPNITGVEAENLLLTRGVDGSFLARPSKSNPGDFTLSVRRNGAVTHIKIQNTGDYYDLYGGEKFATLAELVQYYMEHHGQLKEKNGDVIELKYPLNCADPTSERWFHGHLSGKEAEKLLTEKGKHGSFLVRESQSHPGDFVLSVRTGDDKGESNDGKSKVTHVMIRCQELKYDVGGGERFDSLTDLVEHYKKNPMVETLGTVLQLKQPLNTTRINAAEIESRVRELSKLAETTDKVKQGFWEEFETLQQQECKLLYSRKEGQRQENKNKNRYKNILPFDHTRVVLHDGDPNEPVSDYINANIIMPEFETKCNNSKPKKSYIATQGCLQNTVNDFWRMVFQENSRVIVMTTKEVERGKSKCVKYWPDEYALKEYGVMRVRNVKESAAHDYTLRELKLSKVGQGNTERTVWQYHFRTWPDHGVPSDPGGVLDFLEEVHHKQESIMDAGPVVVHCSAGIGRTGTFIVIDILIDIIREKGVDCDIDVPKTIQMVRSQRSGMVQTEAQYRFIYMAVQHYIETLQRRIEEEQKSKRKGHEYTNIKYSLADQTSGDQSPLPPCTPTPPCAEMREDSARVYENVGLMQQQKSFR
Assay: SHP2 Phosphatase Assay (DiFMUP fluorescence)
Details: SHP2 0.2 nM pre-incubated with 100 nM bi-phosphorylated activating peptide; compound 1000-0.05 nM, 30 min pre-incubation; DiFMUP 20 µM, 45 min, room temperature; 10-concentration dose-response
pIC50: −log10 of the molar value. Counter-ions that a name gives are not always drawn.
Returns one of Condition met or Condition not met; Condition met when pIC50 is >= 8.

A selection of reference data follows.
molecule	assigned class
Cc1nc(N2CCC3(CC2)Cc2ncccc2[C@H]3N)c2ccnn2c1C1CC1	Condition not met
Cc1nc(N2CCC3(CC2)Cc2ncccc2[C@H]3N)c2ccnn2c1-c1ccc(N)nc1	Condition not met
Cc1nc2c(s1)[C@@H](N)C1(CCN(c3nc(C)c(-c4ccnc(C)c4Cl)n4nccc34)CC1)C2 [Compound 84, hydrochloride]	Condition met

// query Does pIC50 meet or surpass 8 for `Cc1nc(N2CCC3(CC2)Cc2ncccc2[C@H]3N)c2ccnn2c1-c1cc(C(F)(F)F)nn1C` ?
// result Condition not met

// query Does pIC50 meet or surpass 8 for Cc1nc(N2CCC3(CC2)Cc2c(F)cccc2[C@H]3N)c2ccnn2c1-c1cccc(F)c1F [Compound 94, formate] ?
// result Condition not met

// query Does pIC50 meet or surpass 8 for `Cc1nc(N2CCC3(CC2)Oc2ncccc2[C@H]3N)c2ccnn2c1-c1cccc(F)c1Cl` ?
// result Condition not met
